compounds and their reported pKi
study system: PgQC (Porphyromonas gingivalis, UniProt Q7MT37)
Sequence (Q7MT37 entry or part of it): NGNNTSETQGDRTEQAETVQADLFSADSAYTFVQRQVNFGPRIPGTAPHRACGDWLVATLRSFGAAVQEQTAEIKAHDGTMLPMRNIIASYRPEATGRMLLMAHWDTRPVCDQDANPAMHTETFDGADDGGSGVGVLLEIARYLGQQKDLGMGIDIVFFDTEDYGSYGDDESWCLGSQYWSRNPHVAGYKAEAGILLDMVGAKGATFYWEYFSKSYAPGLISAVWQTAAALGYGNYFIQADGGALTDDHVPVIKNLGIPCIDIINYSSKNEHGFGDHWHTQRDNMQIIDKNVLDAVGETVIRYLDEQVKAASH
test protocol: QC inhibition assay with fluorogenic substrate H-Gln-AMC (Ki)
Assay type: biochemical
Design: His-tag (pET28a, thrombin-cleavable) (N, cleaved yes); made in house; host or cells: E. coli Rosetta(DE3)pLysS
experimental conditions: H-Gln-AMC substrate, 1% DMSO, pH 8.0, 30 °C; read-out: Inhibition of QC (Ki) PgQC
Entry type: numeric. Quantity: pKi, the -log10 of concentration in molar units.

Past entries and their recorded results:
**Query** Read the entry c1ccc(Cn2ccnc2)cc1 [1-Benzylimidazol, 1-benzylimidazole] and write its reported pKi.
**Result** 4.98

**Query** Read the entry c1ccc2[nH]cnc2c1 [Benzimidazole, benzimidazole] and write its reported pKi.
**Result** 4.49

New cases:
**Query** Read the entry c1c[nH]cn1 [Imidazole, imidazole] and write its reported pKi.
**Result** 3.46
